- assayDetails: GHB toxicokinetic study, i.v. bolus, plasma and urine up to 8 h, noncompartmental analysis
- Type: in vivo, Sprague Dawley rats
- experimentalContext: male, Sprague Dawley, rat, plasma and urine, iv, 1000 mg/kg, 1000 mg/kg GHB iv; CST testosterone placebo rats; read-out: CLm – Metabolic clearance
measuredMetric: clearance (L/h/kg)
Your answer should be a plain number; it is taken to be in L/h/kg.

// recorded clearance for O=C(O)CCCO [GHB, Γ-hydroxybutyric acid] : 0.096

====

- assayDetails: GHB toxicokinetic study, i.v. bolus, plasma and urine up to 8 h, noncompartmental analysis
- Type: in vivo, Sprague Dawley rats
- experimentalContext: male, Sprague-Dawley, rat, plasma, iv, 1500 mg/kg, 1500 mg/kg GHB iv; CST testosterone placebo rats; read-out: CL (total clearance)
measuredMetric: clearance (mL/min/kg)
Answer format: numeric, mL/min/kg implied, no suffix.

The recorded clearance for O=C(O)CCCO [GHB, Γ-hydroxybutyric acid] is 4.9
